# credit: PubChem BioAssay (NCI)

Consider the following compounds; for each one, report its TGI.
- System: ACHN renal
- protocol: NCI tumour cell line growth inhibition, 48 h

O=C1[C@@H]2C(c3ccc(Br)cc3)=NO[C@@H]2C(=O)N1c1ccc(Cc2ccc(N3C(=O)[C@H]4C(c5ccc(Br)cc5)=NO[C@H]4C3=O)cc2)cc1 = > 40 µM
C[C@@]1([C@H](OC(=O)c2ccccc2)C(N)=O)CO1 = 34.3 µM
CC(C)c1cccc(C(C)C)c1NC(=O)C(=O)Cc1nc2ccc([N+](=O)[O-])cc2[nH]c1=O = > 100 µM
O=C/C(=C1/C=Cc2cc([N+](=O)[O-])ccc2S1)c1ccccc1 = > 100 µM
CCN(CC)c1ccc(/C=C/C(=O)c2ccc(Nc3nc(Nc4ccccc4)nc(Nc4ccccc4)n3)cc2)cc1 = > 100 µM
COc1cnc2c(c1)C(=O)c1c-2n(CCCNC2=NCCS2)c(=O)c2cc(F)ccc12 = 1.91 µM
O=C1Nc2ccc(Cl)cc2/C1=C\c1c(-c2ccc(Cl)cc2)nc2sc(C3CC3)nn12 = 12.3 µM
O=C1NC(=NCCc2ccc(F)cc2)S/C1=C\c1ccc2ncccc2c1 = > 25 µM
NS(=O)(=O)c1ccc(Nc2cc(-c3ccc(O)c(F)c3)[nH]n2)cc1 = > 25 µM
CCN1CCN(c2nc(C)cc(N(CCCNc3ccnc4cc(Cl)ccc34)Cc3ccc4c(c3)OCO4)n2)CC1 = 4.15 µM

For every item in the list below, what is its measured TGI?
1. COc1cc2ccc3c4ccccc4cnc3c2cc1OC
2. CC(C)(O)/C1=C/C=C/CCCCCCCCCC1
3. CCOC(=O)C(NC(=O)OCc1ccccc1)C(=O)O (stereo not drawn)
4. FC(F)(F)c1ccc(C2ON=C(c3ccccc3)N2C23CC4CC(CC(C4)C2)C3)cc1 (stereo not drawn)

-- reply
["> 100 µM", "> 100 µM", "> 100 µM", "> 10 µM"]

For every item in the list below, what is its measured TGI?
1. COC(=O)C(=O)C(C(=O)OC)C(=O)C(=O)Nc1c(C)cccc1C (stereo not drawn)
2. O=C(Nc1ccc(Oc2ccc3nc(NC(=O)c4ccco4)[nH]c3c2)cc1)Nc1cc(C(F)(F)F)ccc1F

-- reply
["> 100 µM", "6.08 µM"]

For every item in the list below, what is its measured TGI?
1. C=C1C[C@H]2C=Nc3cc(OCCCOc4cc5c(cc4OC)C(=O)N4CC(=C)C[C@H]4C=N5)c(OC)cc3C(=O)N2C1
2. CC(C)=CCCC(C)(OC1OC(CO)C(O)C(O)C1O)C1CCC2(C)C1C(O)CC1C3(C)CCC(O)C(C)(C)C3C(OC3OC(CO)C(O)C(O)C3OC3OC(C)C(O)C(O)C3O)CC12C (stereo not drawn) (tested in a mixture with another compound)

-- reply
0.0922 µM
> 75 µM

----------
Consider the following molecules; for each one, report its GI50.
- Test system: HL-60(TB) leukemia
- protocol: NCI tumour cell line growth inhibition, 48 h

Solved cases (2 shown):
CCN(CC)c1ccc(/C=C/C(=O)c2ccc(Nc3nc(Nc4ccccc4)nc(Nc4ccccc4)n3)cc2)cc1 = 18000 nM
COc1ccc2nc3cc(Cl)ccc3c(NCCCNCCO)c2c1 = 613 nM

-- ask For the molecule COc1cc(-c2cc(/C=C/C(=O)c3ccc(F)c(F)c3)[nH]n2)cc(OC)c1OC , give its measured GI50 value.
-- reply 2480 nM
